// reported MIC per item
Test system: P. aeruginosa KCTC2004
Type: cell-based, Pseudomonas aeruginosa
Condition: KCTC2004, 16 h
Where no end group is shown, it is not given here.
Could you kindly put the unit after your number?

Solved cases (6 shown):
| Query Sequence | MIC |
| --- | --- |
| FFHHIARGIVHVGKTIHRLVTG [Pis-F6A] | 8.0 µM |
| KFHHIFRGIVHVGKTIHRLVTG [Pis-F1K] | 4.0 µM |
| FFHHIFRGIKHVGKTIHRLVTG [Pis-V10K] | 2.0 µM |
| FFHHIKRGIVHVGKTIHRLVTG [Pis-F6K] | 8.0 µM |
| FKHHIFRGIKHVGKTIHRLVTG [Pis-F2K/V10K] | 8.0 µM |
| KFHHIFRGIKHVGKTIHRLVTG [Pis-F1K/V10K] | 2.0 µM |

Any idea what its MIC is? The sequence is FAHHIFRGIVHVGKTIHRLVTG [Pis-F2A]
8.0 µM

----------
System: MDREC CCARM 1229
Assay type: cell-based, multidrug-resistant E. coli
Condition: broth microdilution, 37°C, 16 h, three independent experiments in triplicate, SD 14.0%
Where no end group is shown, it is not given here.
Readout Kind: MIC (µM)
Only the number, expressed in µM, is required.

// solved cases for MIC follow
| Query Sequence | Tested System | MIC (µM) |
| --- | --- | --- |
| FFHHIFRGIVHVGKTIHRLVTG [Pis-1, reference compound] | MDREC CCARM 1229 | 4.0 |
| FFHHIKRGIKHVGKTIHRLVTG [Pis-F6K/V10K] | MDREC CCARM 1229 | 8.0 |
| FKHHIFRGIVHVGKTIHRLVTG [Pis-F2K] | MDREC CCARM 1229 | 16 |

Now for a further sequence.
Which value of MIC has been reported for FFHHIARGIVHVGKTIHRLVTG [Pis-F6A] in the records?
32

----------
System: MDRAB CCARM 12036
Assay type: cell-based, multidrug-resistant Acinetobacter baumanii
Condition: broth microdilution, 37°C, 16 h, three independent experiments in triplicate, SD 14.0%
Where no end group is shown, it is not given here.
Readout Kind: MIC (µM)
The response must be a number in µM with no trailing unit.

Recorded results for 5 sequences are shown here.
| Query Sequence | Readout Kind | Value Units | Reading |
| --- | --- | --- | --- |
| KFHHIFRGIKHVGKTIHRLVTG [Pis-F1K/V10K] | MIC | µM | 2.0 |
| KFHHIFRGIVHVGKTIHRLVTG [Pis-F1K] | MIC | µM | 2.0 |
| FKHHIFRGIVHVGKTIHRLVTG [Pis-F2K] | MIC | µM | 2.0 |
| FFHHIKRGIVHVGKTIHRLVTG [Pis-F6K] | MIC | µM | 4.0 |
| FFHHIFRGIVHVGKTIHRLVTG [Pis-1, reference compound] | MIC | µM | 2.0 |

Test system MDRAB CCARM 12036; read-out MIC; what value for AFHHIFRGIVHVGKTIHRLVTG [Pis-F1A] ?
2.0

Return MIC measured with MDRAB CCARM 12036 given this sequence: FFHHIARGIVHVGKTIHRLVTG [Pis-F6A]
4.0

Notebook entry, MDRAB CCARM 12036 assay: MIC of FKHHIFRGIKHVGKTIHRLVTG [Pis-F2K/V10K] = ?
2.0

Record FFHHIKRGIKHVGKTIHRLVTG [Pis-F6K/V10K] : what is its MIC with MDRAB CCARM 12036?
4.0

Record lookup: for MDRAB CCARM 12036, what MIC belongs to FAHHIFRGIVHVGKTIHRLVTG [Pis-F2A] ?
4.0

Can you look up MIC on MDRAB CCARM 12036 for FFHHIFRGIKHVGKTIHRLVTG [Pis-V10K] ?
2.0

----------
Tested on: MRSA CCARM 3126
Type: cell-based, Methicillin-resistant S. aureus
Condition: CCARM 3126, 16 h
Where no end group is shown, it is not given here.
Measured MIC, listed per entry for reference.
Give just the numeric value; µM need not be written.

Known results for sequences:
| Query Sequence | Reading |
| --- | --- |
| FFHHIKRGIKHVGKTIHRLVTG [Pis-F6K/V10K] | 8.0 |
| FFHHIFRGIKHVGKTIHRLVTG [Pis-V10K] | 4.0 |
| FKHHIFRGIVHVGKTIHRLVTG [Pis-F2K] | 16 |
| KFHHIFRGIKHVGKTIHRLVTG [Pis-F1K/V10K] | 4.0 |
| AFHHIFRGIVHVGKTIHRLVTG [Pis-F1A] | 8.0 |
| KFHHIFRGIVHVGKTIHRLVTG [Pis-F1K] | 8.0 |
| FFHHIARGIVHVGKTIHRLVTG [Pis-F6A] | 16 |
| FKHHIFRGIKHVGKTIHRLVTG [Pis-F2K/V10K] | 8.0 |
| FFHHIKRGIVHVGKTIHRLVTG [Pis-F6K] | 16 |

Continue with the next sequence.
Please look up its MIC: FAHHIFRGIVHVGKTIHRLVTG [Pis-F2A]
16

----------
System: S. aureus KCTC3881
Assay type: cell-based, Staphylococcus aureus
Condition: KCTC3881, 16 h
Where no end group is shown, it is not given here.
Item-by-item account of MIC
# unit: µM | format: bare number

Look at this sequence and give its reported MIC. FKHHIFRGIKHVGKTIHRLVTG [Pis-F2K/V10K]
4.0

----------
System: MDREC CCARM 1229
Format: cell-based, multidrug-resistant E. coli
Condition: broth microdilution, 37°C, 16 h, three independent experiments in triplicate, SD 14.0%
Where no end group is shown, it is not given here.
Overview of reported MIC across a group of sequences:
// return numeric value only (unit: µM, not printed)

| Query Sequence | Readout Kind | Reading |
| --- | --- | --- |
| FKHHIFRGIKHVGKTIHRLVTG [Pis-F2K/V10K] | MIC | 8.0 |

Please provide the recorded MIC for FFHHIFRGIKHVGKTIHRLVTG [Pis-V10K] , tested on MDREC CCARM 1229.
4.0

Missing value: MIC, MDREC CCARM 1229, entry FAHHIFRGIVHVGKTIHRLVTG [Pis-F2A] . Fill in?
16

Form entry - test system: MDREC CCARM 1229; read-out: MIC; sequence: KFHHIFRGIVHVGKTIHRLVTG [Pis-F1K]
8.0

// fetch MDREC CCARM 1229 MIC for AFHHIFRGIVHVGKTIHRLVTG [Pis-F1A]
8.0

What measured MIC is associated with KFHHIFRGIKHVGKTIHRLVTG [Pis-F1K/V10K] on MDREC CCARM 1229?
4.0

Provide value of MIC for this record tested with MDREC CCARM 1229: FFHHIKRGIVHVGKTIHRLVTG [Pis-F6K]
16

----------
Tested on: MDRST CCARM 8009
Format: cell-based, multidrug-resistant S. typhimurium
Condition: broth microdilution, 37°C, 16 h, three independent experiments in triplicate, SD 14.0%
Where no end group is shown, it is not given here.
Readout Kind: MIC (µM)
Write the value in µM as a bare number.

| Query Sequence | MIC [µM] |
| --- | --- |
| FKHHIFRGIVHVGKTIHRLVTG [Pis-F2K] | 16 |
| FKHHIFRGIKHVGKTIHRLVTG [Pis-F2K/V10K] | 8.0 |
| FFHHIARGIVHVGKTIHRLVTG [Pis-F6A] | 16 |
| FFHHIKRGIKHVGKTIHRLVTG [Pis-F6K/V10K] | 8.0 |

Give the measured MIC of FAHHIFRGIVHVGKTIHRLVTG [Pis-F2A] .
16

I'd like to know its MIC. The sequence in question is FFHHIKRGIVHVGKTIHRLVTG [Pis-F6K]
16

----------
Test system: P. aeruginosa KCTC2004
Assay type: cell-based, Pseudomonas aeruginosa
Condition: KCTC2004, 16 h
Where no end group is shown, it is not given here.
Readout Kind: MIC (µM)
Use µM as the unit, but write only the number.

| Query Sequence | Tested System | MIC [µM] |
| --- | --- | --- |
| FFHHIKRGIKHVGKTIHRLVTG [Pis-F6K/V10K] | P. aeruginosa KCTC2004 | 8.0 |
| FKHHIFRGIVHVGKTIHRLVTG [Pis-F2K] | P. aeruginosa KCTC2004 | 8.0 |

What value of measured MIC is listed for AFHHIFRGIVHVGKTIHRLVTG [Pis-F1A] ?
4.0

----------
Tested on: S. typhimurium KCTC1926
Assay type: cell-based, Salmonella typhimurium
Condition: KCTC1926, 16 h
Where no end group is shown, it is not given here.
This listing pairs sequences with measured MIC.
Unit µM implied. Number only.

Worked examples, 2 sequences total:
| Query Sequence | Readout Kind | Reading |
| --- | --- | --- |
| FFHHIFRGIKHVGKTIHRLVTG [Pis-V10K] | MIC | 1.0 |
| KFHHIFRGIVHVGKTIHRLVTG [Pis-F1K] | MIC | 4.0 |

For the record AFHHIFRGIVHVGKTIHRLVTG [Pis-F1A] , what value of MIC is listed for S. typhimurium KCTC1926?
8.0

Give MIC (S. typhimurium KCTC1926) of the following sequence: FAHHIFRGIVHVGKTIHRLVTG [Pis-F2A]
16

Request body: readout MIC, system S. typhimurium KCTC1926, query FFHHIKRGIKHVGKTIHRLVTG [Pis-F6K/V10K] . Return the value.
8.0
